For each record, write down the corresponding protein stability index.
- assay_info: protein stability index of a GFP-peptide fusion (GPS, HEK-293T) (PSI 1-6); higher = more stable;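 also: 24-mer peptide tiles fused after GFP, lentivirally expressed, FACS-sorted into six equal bins by GFP/DsRed ratio, decoded by Illumina sequencing, PSI is the read-weighted mean bin number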
- condition_description: treatment: DMSO; c terminus: a fixed tail appended
Output: the number by itself.

Given the entry QPQDRNQALGTHRPVNKLAELQCE [RASAL3] , report its measured protein stability index.
4.77

And then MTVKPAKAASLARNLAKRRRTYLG [RSPH3] , what is it?
3.16

Next sequence: HQCHKVIRGRYLVALGHAYHPEEF [PDLIM7]
2.17

Entry LGPESWQQIAMDPEEVKSLDSNGA [BCL2L13] please
5.16

Another sequence: KRSWTSAQNACSEHGATLAVIDSE [CD69]
4.64

What about this sequence? LIKSGAHFDATNLHKQTASDLLDE [FEM1C]
4.61

Moving on to PNRVLAPEQSLKKTKTSEYPIIFV [SPANXN3]
2.22

----------
- assay_info: protein stability index of a GFP-peptide fusion (GPS, HEK-293T) (PSI 1-6); higher = more stable
- condition_description: treatment: MLN4924 1 uM, 8 h; c terminus: native
So basically, the class depends on measured protein stability index, and the ranges are low interval (below 3), middle interval (3 to below 4), high interval (4 or more)

Lab note: which band did PKKIMPEAHSHYLYGHMLSAFRD [PPFIA4] land in?
low interval

Request: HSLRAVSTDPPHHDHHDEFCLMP [BEX1]
middle interval

Param item: LQEKQKNEKLISLQEQLQRFLKK [TAF7L]
high interval

How about this sequence: PVSKPGALRRSLSRSMSQEAQRG [TCAP]
middle interval

And for RIVKIWDMTPVVGCSLATGFSPH [WDFY1] ?
low interval

Would you mind doing TWGKNKPGIGAVILKRFCWLLLQ [FAN1] as well?
low interval

And for EGSSQEDEDLGLSEGSSQDSGED [SPANXN3] ?
high interval

Try the sequence QSSNLFRHQRRHNAEKLLNVVKV [ZNF24]
low interval

Would you mind doing EATTSDPQDLDMKKHRCKCCSIM [PALM] as well?
high interval

----------
- assay_info: protein stability index of a GFP-peptide fusion (GPS, HEK-293T) (PSI 1-6); higher = more stable
- condition_description: treatment: MLN4924 1 uM, 8 h; c terminus: a fixed tail appended
Would you kindly list protein stability index for each of these sequences?
Give only the figure.

Tell me the measured protein stability index of TENRYCVQLSQIQGLIGSVEEQLA [KRT17] , please.
3.24

Try the sequence QLLSERFGRGSRTVDLELELQIEL [ARFIP2]
2.99

And the next one, CLMIAAYKGHTDVVRYLLEQRADP [FEM1B] ?
2.35

What do you get for PDTELKRYFGARAILGEQRPRQRQ [TCF25] ?
4.11

Further, for FIMDSCDELIPEYLNFIRGVVDSE [HSP90AB1] ?
2.32

Then what about the sequence TMLKAMFSGRMEVLTDSEGWILID [KCTD10] ?
2.75

Further, for FYSNLILQHEERETRQKKLEVAME [STK38L] ?
3.08

Follow-up item: AITTDCLQILAYGNQESKLIILAS [CTNNB1]
2.81

Also PDNEQLMEEVISPRQVSYTPQHHE [IQUB] , if possible.
5.32

Now the same for LRYYYDKNIIHKTSGKRYVYRFVC [ETS2]
2.53

Try MYRWKLSSHEPCSATCTTGVMSAY [ADAMTSL2] next.
2.2

Moving on to the next sequence: FFHCYCPVGFGRRTDPNGDYIRRY [CRY1]
2.34

For VEVLGPYEPLLSRVQAALVWERPA [RETREG3] then?
2.48

Also PFYTSRIDEVLLHQDVDLVCINLP [GFOD1] , if possible.
2.21

Same read-out for GSCGQGRTIRHVYCKTSDGRVVPE [ADAMTSL2] ?
3.57

Would you kindly repeat that for PGFYATYESTLFEDQVPALEAPED [MIA2] ?
4.92

# repeat for EHDFLDRDAIEALCRRLNTLNKCA [DLC1]
2.73

Try VLEQEETAAASRERQEEQSAAIHI [EPB41L3] next.
5.16

Entry to check: MSEADGLRQRRPLRPQVVTDDDGQ [APMAP]
5.37

Record: IAQCQDSPTSGKFRRGSGSACSLL [MCOLN1]
3.63

What do we get for QQVCQWLLWATNEFSLVNVNLQRF [ETS2] ?
2.94

Quick one: PPRGRSEAPDSLNGPLGPSEASIA [SMG5]
5.12

Also need GALGMSNRDSYFYAAIVAVVAVHV [VMA21] , thanks.
2.81

For PVAAATAAEGEGSPPAVAAVAGPP [ANKRD17] then?
5.54

Do the same for AWPFYKPVDAEALELHDYHDIIKH [BRD3] please
3.24

Param item: LPELFHKIGVGAMTWSPLACGIVS [KCNAB2]
2.84

Another sequence to look at: LEFDLLIFSFGQLPLALVTWVPMF [SOAT2]
3.02

Thanks! And SDLNTNNLLFKPPVESHIQKNKKI [KMT2E] ?
4.45

Cool, now DMKAMSPENQEYFEKHRWPPVWYL [RHOBTB2]
2.67

Would you kindly repeat that for PRMCRYVRERDRLGNEYPKLHYPE [CDC25A] ?
3.15

Same question, TQRPAMVQTEDQYQFSYRAALEYL [PTPRD] this time
3.06

And for RSGAGVALLNDHIYVVGGFDGTAH [KLHL12] ?
2.37

Field entry: CVATTGDITVSVSTSFLPELSSVH [FBXO3]
2.14

Another sequence: KLPATMPEPVYFHCAAVTPAGCMY [KLHDC10]
2.08

Now the sequence SLAHCRHDGEDVACPQGGVQYGAG [LOXL2]
3.96

Same question, RALKFRERDALEAVFRFWAGGEKG [DNAAF3] this time
2.59

Lookup NFIGRQWEISDDYPSLQAMGWFNN [CRYBA1]
2.32

Note, next up: VLYLMMPIVNISEVLGPLCLMLLM [PHTF1]
2.67

Another sequence to check: KNGQGFALVYSITAQSTFNDLQDL [RAP1B]
2.17

Continue with TDYINASFMDGYKQKNAYIGTQGP [PTPN9]
3.21

Quick one: CPTEPPDDSCQDQPGTNCALAIKV [ADAMTSL2]
5.03

One more sequence: YPFQDSEPVLLFGKIRRGAYALPA [TRIB3]
2.66

Can you check KLDTKYPYVCHAELNAIMNKNSTD [DCTD] next?
3.42

Also, NRPIETYQVHDYLRSKLCSLYEND [PPP2R2B] please.
3.22

Further, for LCRKCANDIFQAANPYWTSRGSSV [TRIM63] ?
2.58

Moving on to ALPENEFKKQIWLLFEYPESSSPA [KCNA4]
2.44

Now consider TGLSMIANGGAICAVTFFTILLSY [OR4A15] and answer again.
3.16

Then this sequence: SEEDGEARTQMILLRRSVEGASSD [PHTF1]
5.23

Next sequence: LMADLVADISEAEQRTIQAQKESL [APBB1IP]
3.6

Please answer likewise for RQVRDKTLKRGYFQKSLVLISKLP [DENND6A]
2.36

Repeat with SYSRLCRESGAEPQEAVLQQLHQL [LRRC45]
3.71

Then GHSQEKTHSREKSSQESGEEAGSQ [CHGB] ?
5.45

Another sequence to check: HVPTVWAIDQYRVCQEVLERSRDV [RHOBTB1]
3.08

Cited source: the supplement of paper PMC10567573
